Target: Estrogen receptor (Homo sapiens) (UniProt P03372)
Sequence (P03372 whole entry, looked up): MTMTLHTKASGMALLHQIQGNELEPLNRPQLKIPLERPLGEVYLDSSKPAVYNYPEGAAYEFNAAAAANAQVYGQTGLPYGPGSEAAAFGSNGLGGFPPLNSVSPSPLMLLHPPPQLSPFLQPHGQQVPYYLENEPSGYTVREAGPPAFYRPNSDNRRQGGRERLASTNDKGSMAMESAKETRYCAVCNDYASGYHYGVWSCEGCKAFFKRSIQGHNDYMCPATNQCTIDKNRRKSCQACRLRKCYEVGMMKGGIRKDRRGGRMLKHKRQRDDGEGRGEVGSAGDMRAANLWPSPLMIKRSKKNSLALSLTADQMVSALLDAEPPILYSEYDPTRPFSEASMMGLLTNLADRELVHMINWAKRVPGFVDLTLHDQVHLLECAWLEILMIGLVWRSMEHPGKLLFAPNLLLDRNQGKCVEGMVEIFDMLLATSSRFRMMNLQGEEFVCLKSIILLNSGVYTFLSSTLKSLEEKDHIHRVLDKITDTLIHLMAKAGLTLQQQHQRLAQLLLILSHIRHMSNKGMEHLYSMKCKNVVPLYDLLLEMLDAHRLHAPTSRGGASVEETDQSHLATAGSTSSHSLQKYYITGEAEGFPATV
Assay: ATG_ERa_TRANS: Attagene TRANS-FACTORIAL HepG2 Assay for human Estrogen Receptor alpha (ERa) (AID 2282970)
Conditions: HepG2 Attagene TRANS ERa GAL4 reporter, mRNA
Method: ATG_TRANS is a cell-based, multiplexed-readout assay that uses HepG2, a human liver cell line, with measurements taken at 24 hours after chemical dosing in a 24-well plate.ATG_ERa_TRANS is one of 30 assay component(s) measured or calculated from the ATG_TRANS assay. […] This assay endpoint, ATG_ERa_TRANS, was analyzed in the positive analysis fitting direction relative to DMSO as the negative control and baseline of activity. […]
Results filed as inconclusive are left out. Activity calls are given as the source filed them. Rule for the calls: active = hit-call score of the fitted dose curve at least 0.9, where 1 is the maximum; inconclusive = response in the unintended direction; inactive = score below 0.9.
In this exercise, the only acceptable responses are 1 = active, 0 = inactive

Sample answers from the record:
{"Compound Smiles": "O=C(O)Cc1ccccc1Nc1c(Cl)cccc1Cl", "Group Label": 0}
{"Compound Smiles": "COc1ccc(C)cc1N", "Group Label": 0}

Alright, here's another compound for you.
Lookup: Name the outcome recorded for Nc1ccc2c(c1)C(=O)c1ccccc1C2=O in the assay.
Found: 1

* * *

Read-out: Human Leukocyte Antigen - DR isotype (HLADR), HLA-DRA (gene 3122)
Test: BSK_BE3C_HLADR: BioMAP Diversity Plus: BE3C Assay for Human Leukocyte Antigen - DR isotype (HLADR) Biomarker Activity (AID 2283032)
Settings: primary human bronchial epithelial cells; actives raise or lower the signal
Activity calls are given as the source filed them. Rule for the calls: active = hit-call score of the fitted dose curve at least 0.9, where 1 is the maximum; inactive = score below 0.9.
Can you answer with just one of these options? TRUE (active), FALSE (inactive)

Please review the following examples before continuing.
{"Compound": "COc1ccc(S(=O)(=O)N2C(=O)[C@@](c3ccccc3OC)(N3C[C@H](O)C[C@H]3C(=O)N(C)C)c3cc(Cl)ccc32)c(OC)c1", "Group Label": "FALSE"}
{"Compound": "Nc1nc(N)c2nc(CNc3ccc(C(=O)N[C@@H](CCC(=O)O)C(=O)O)cc3)cnc2n1", "Group Label": "FALSE"}
{"Compound": "CC(CO)OC(C)CO (stereo unspecified) (tested in a mixture with another compound)", "Group Label": "FALSE"}
{"Compound": "NCC1(Cc2noc(=O)[nH]2)CCCCC1", "Group Label": "FALSE"}
{"Compound": "CCc1c(C(=O)NN2CCCCC2)nn(-c2ccc(Cl)cc2Cl)c1-c1ccc(Br)cc1", "Group Label": "TRUE"}

Okay, now this compound:
Lookup: Tell me the assay call for Cc1nc(C)nc(N2C[C@@H](C)N(c3ccnc([C@@H](C)O)n3)[C@@H](C)C2)n1 please.
Found: FALSE

* * *

Read-out: TIMP metallopeptidase inhibitor 2 (TIMP2), TIMP2 (gene 7077)
Assay: BSK_KF3CT_TIMP2: BioMAP Diversity Plus: KF3CT Assay for TIMP metallopeptidase inhibitor 2 (TIMP2) Biomarker Activity (AID 2283071)
Conditions: primary human keratinocytes with fibroblasts; actives raise or lower the signal
The source made the active and inactive calls. Rule for the calls: active = hit-call score of the fitted dose curve at least 0.9, where 1 is the maximum; inactive = score below 0.9.
Measured Attribute: outcome

{"Compound Smiles": "CC(=O)Oc1ccccc1C(=O)O", "Value Observed": "inactive"}
{"Compound Smiles": "CCOC(=O)C(C)(C)Oc1ccc(Cl)cc1", "Value Observed": "inactive"}
{"Compound Smiles": "NCC1(Cc2noc(=O)[nH]2)CCCCC1", "Value Observed": "inactive"}
